The reported measurements were obtained from ChEMBL document CHEMBL2218924.

study-target: SRSF protein kinase 3 (Homo sapiens) (UniProt Q9UPE1)
Sequence (Q9UPE1 whole entry): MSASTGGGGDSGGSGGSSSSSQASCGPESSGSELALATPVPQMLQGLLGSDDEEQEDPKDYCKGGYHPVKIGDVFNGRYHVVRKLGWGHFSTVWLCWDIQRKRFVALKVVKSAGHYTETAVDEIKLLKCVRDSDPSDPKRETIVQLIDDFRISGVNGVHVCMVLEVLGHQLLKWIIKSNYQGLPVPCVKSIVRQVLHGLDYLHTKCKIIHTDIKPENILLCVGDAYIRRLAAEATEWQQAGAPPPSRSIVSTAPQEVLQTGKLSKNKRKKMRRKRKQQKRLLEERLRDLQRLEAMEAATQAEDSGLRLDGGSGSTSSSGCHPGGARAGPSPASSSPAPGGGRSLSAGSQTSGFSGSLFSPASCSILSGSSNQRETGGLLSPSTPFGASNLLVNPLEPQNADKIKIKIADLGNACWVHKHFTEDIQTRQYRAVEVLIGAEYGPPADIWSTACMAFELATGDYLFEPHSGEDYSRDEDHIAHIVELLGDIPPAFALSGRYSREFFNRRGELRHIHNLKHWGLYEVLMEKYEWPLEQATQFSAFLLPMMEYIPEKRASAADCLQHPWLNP
condition-parameters: at 10 µM
Description: Millipore: Percentage of residual kinase activity of SRPK3 at 10uM relative to control. Control inhibitor: Phosphoric acid* at 0.3uM. Buffer: 8 mM MOPS pH 7.0, 0.2 mM EDTA
Would you mind labelling by residual activity? At or over 80% is 1 (yes), under is 0 (no).

// query # bool: residual activity of "Oc1n[nH]c2nnc(-c3c(-c4ccccc4)nn4ccccc34)cc12" >= 80%
// result 0 (no)

// query Again, but for "CCN(CC)C(=O)c1ccc(Nc2nc(OCC3CCCCC3)c3nc[nH]c3n2)cc1"
// result 0 (no)

// query Again, but for "CC(=O)c1ccc(N2CCOCC2)cc1O"
// result 1 (yes)

// query Again, but for "O=C1c2ccccc2-[n+]2ccc3c([nH]c4ccccc43)c21"
// result 1 (yes)

// query Again, but for "N#Cc1cnc2cnc(NCc3cccnc3)cc2c1Nc1ccc(F)c(Cl)c1"
// result 1 (yes)

// query Again, but for "O=Nc1c(-c2c(O)[nH]c3ccccc23)[nH]c2ccccc12"
// result 0 (no)

// query Again, but for "Cn1nc2c3c(cccc31)C(=O)c1ccccc1-2"
// result 1 (yes)

// query Again, but for "CC(C)n1cnc2c(NCc3ccccc3)nc(NCCCO)nc21"
// result 0 (no)

// query Again, but for "O=C1NC(=O)/C(=C\c2ccc3nccnc3c2)S1"
// result 0 (no)

// query Again, but for "Cc1cncc2cccc(S(=O)(=O)N3CCCN(C(=O)CN)C[C@H]3C)c12"
// result 0 (no)

// query Again, but for "Nc1ccc2ncnc(NCCc3ccc(Oc4ccccc4)cc3)c2c1"
// result 1 (yes)

// query Again, but for "Oc1ccc(Nc2nc(-c3ccc(Cl)cc3)cs2)cc1"
// result 1 (yes)

// query Again, but for "COc1cccc(-c2cc(=O)c3ccccc3o2)c1N"
// result 1 (yes)

// query Again, but for "Nc1n[nH]c2nnc(-c3c(-c4ccccc4)nn4ccccc34)cc12"
// result 0 (no)

// query Again, but for "CCOc1cc2ncnc(Nc3cccc(Br)c3)c2cc1OCC"
// result 0 (no)

// query Again, but for "O=C1NC(=O)/C(=C/c2ccc3c(c2)OC(F)(F)O3)S1"
// result 0 (no)

// query Again, but for "O=C1NC(=O)c2cc(Nc3ccc(F)cc3)c(Nc3ccc(F)cc3)cc21"
// result 1 (yes)

// query Again, but for "CCC(=O)Nc1ccc2ncnc(Nc3cccc(Br)c3)c2c1"
// result 1 (yes)

// query Again, but for "C[C@@H](N)[C@H]1CC[C@H](C(=O)Nc2ccncc2)CC1"
// result 1 (yes)

// query Again, but for "O=C1Nc2cc(Br)ccc2/C1=C1/Nc2ccccc2/C1=N\O"
// result 1 (yes)

----------
study-target: Ephrin type-A receptor 2 (Homo sapiens)
condition-parameters: at 1 µM
measure: residual activity (%)
// return numeric value only (unit: %, not printed)

// query Suppose we examine the molecule "CC(=O)c1ccc(N2CCOCC2)cc1O" ; what residual activity value has been reported?
// result 102

----------
study-target: Serine/threonine-protein kinase 4 (Homo sapiens) (UniProt Q13043)
Sequence (Q13043 whole entry): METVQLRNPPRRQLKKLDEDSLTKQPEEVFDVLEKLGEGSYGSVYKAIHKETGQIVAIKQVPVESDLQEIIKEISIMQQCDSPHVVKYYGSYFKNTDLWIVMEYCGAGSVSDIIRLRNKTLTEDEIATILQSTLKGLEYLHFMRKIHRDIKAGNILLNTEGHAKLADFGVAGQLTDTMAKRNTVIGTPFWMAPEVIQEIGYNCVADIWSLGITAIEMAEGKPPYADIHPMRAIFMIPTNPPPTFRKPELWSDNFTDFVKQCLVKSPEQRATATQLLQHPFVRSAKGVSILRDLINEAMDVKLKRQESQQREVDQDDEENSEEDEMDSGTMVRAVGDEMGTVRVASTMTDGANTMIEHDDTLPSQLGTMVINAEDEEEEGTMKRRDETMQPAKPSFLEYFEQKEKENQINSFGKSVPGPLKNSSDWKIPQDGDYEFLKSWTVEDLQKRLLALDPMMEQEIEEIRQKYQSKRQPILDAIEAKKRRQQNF
condition-parameters: at 1 µM
Consider the following compounds and their measured residual activity readings.
// return numeric value only (unit: %, not printed)

Some solved entries appear below for comparison.
CO[C@H]1[C@@H](OC)C[C@H](C)[C@@H](OC)C2=CC(=O)C=C(NC(=O)/C(C)=C/C=C/[C@H](OC)[C@@H](OC(N)=O)/C(C)=C/[C@@H]1C)C2=O 101
CCOc1cc2ncnc(Nc3cccc(Br)c3)c2cc1OCC 83
O=C1NC(=O)/C(=C/c2ccc3c(c2)OC(F)(F)O3)S1 100
O=c1c2ccccc2[nH]c(=S)n1CCN1CCC(=C(c2ccc(F)cc2)c2ccc(F)cc2)CC1 93
Nc1n[nH]c2nnc(-c3c(-c4ccccc4)nn4ccccc34)cc12 71

// query Suppose we examine the compound "O=C1c2ccccc2-[n+]2ccc3c([nH]c4ccccc43)c21" ; what residual activity value has been reported?
// result 108

// query Again, but for "Nc1cccc(-c2cc3c(Oc4cccc(O)c4)ncnc3[nH]2)c1"
// result 73

----------
study-target: Tyrosine-protein kinase JAK3 (Homo sapiens)
Sequence (whole entry): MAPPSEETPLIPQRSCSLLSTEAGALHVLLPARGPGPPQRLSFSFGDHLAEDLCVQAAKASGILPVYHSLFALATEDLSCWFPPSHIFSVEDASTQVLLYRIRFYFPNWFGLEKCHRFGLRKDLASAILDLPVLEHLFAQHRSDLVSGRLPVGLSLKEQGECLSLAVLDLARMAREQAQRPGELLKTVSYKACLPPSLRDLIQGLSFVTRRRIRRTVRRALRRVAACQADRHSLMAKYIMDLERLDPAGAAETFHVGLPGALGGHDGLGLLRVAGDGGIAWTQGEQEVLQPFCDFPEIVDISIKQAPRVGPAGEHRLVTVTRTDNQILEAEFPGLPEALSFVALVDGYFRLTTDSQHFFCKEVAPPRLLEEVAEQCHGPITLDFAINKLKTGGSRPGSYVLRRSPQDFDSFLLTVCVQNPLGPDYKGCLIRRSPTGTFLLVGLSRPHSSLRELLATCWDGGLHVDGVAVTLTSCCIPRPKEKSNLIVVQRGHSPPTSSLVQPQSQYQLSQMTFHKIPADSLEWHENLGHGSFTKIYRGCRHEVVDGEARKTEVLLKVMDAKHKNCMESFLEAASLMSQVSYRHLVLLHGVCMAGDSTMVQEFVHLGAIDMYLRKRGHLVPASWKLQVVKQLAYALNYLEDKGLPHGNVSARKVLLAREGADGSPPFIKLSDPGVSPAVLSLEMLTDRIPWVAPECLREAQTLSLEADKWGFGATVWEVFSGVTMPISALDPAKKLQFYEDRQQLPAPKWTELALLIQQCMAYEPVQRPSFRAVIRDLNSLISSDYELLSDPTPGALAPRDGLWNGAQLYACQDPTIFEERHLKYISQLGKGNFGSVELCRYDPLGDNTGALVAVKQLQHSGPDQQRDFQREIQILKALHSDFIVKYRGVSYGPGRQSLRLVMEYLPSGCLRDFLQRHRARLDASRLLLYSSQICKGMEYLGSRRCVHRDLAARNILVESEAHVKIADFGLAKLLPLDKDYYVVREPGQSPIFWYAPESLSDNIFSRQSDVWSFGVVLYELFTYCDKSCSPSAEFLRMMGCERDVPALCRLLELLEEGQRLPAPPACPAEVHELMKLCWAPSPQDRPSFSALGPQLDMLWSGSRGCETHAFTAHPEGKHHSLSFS
condition-parameters: at 10 µM
measure: residual activity (%)
// return numeric value only (unit: %, not printed)

Some solved entries appear below for comparison.
CNc1cc2c(Nc3cccc(Br)c3)ncnc2cn1 78
O=C1NC(=O)/C(=C/c2ccc3c(c2)OC(F)(F)O3)S1 63
Ic1cccc(CSc2nnc(-c3ccncc3)o2)c1 89
COc1cc2ncnc(Nc3ccc(Oc4ccccc4)cc3)c2cc1OC 113
CN(C)c1ccc(/C=C2\C(=O)Nc3ccccc32)cc1 32

// query Suppose we examine the compound "CO[C@H]1[C@@H](OC)C[C@H](C)[C@@H](OC)C2=CC(=O)C=C(NC(=O)/C(C)=C/C=C/[C@H](OC)[C@@H](OC(N)=O)/C(C)=C/[C@@H]1C)C2=O" ; what residual activity value has been reported?
// result 63

----------
study-target: Dual specificity tyrosine-phosphorylation-regulated kinase 2 (Homo sapiens) (UniProt Q92630)
Sequence (whole entry): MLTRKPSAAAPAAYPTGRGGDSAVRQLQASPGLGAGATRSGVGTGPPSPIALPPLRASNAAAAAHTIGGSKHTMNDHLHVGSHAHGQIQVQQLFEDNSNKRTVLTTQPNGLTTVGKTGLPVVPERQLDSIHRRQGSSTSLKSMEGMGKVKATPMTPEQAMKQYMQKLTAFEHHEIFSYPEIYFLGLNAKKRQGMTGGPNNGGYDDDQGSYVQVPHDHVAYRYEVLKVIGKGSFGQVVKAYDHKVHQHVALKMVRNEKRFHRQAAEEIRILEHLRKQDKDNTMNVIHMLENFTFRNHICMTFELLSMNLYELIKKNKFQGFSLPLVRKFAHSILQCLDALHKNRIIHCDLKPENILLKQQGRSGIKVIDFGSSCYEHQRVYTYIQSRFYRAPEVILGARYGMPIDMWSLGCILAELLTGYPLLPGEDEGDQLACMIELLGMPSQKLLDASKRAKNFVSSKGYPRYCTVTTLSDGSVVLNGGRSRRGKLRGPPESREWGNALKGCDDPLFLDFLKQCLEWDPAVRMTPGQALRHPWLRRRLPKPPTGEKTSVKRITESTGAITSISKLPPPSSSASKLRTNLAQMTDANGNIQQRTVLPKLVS
condition-parameters: at 10 µM
Would you mind labelling by residual activity? At or over 90% is 1.0, under is 0.0.

CCOc1cc2ncnc(Nc3cccc(Br)c3)c2cc1OCC 0.0
N#CCCc1ccc2c(c1)-c1[nH]c3ccc([N+](=O)[O-])cc3c1CC(=O)N2 0.0
CC[n+]1c(/C=C/N(C)c2ccccc2)n(-c2ccccc2)c2ccc(-c3nc4ccccc4s3)cc21 1.0

We next turn to a different compound, shown below.
// query # bool: residual activity of "Cc1nc(-c2ccccc2)c(-c2ccncc2)o1" >= 90%
// result 0.0
